Test system: J774.1
assay: Cytotoxicity against mouse J774.1 cells after 24 hrs by alamar blue assay
Assay type: cell-based
run.conditions: J774.1, 24 h
For each of the compounds below, state its pIC50.
Scale for pIC50: -log10 of concentration given in mol/L; no unit attached.

Data request: Query for J774.1: what pIC50 does the record show for CC1(C)CCc2c(nc3cc(Cl)ccc3c2NCCCCCCNc2c3c(nc4cc(Cl)ccc24)CC(C)(C)CC3)C1 ?
Data returned: 5.77

Data request: Input Nc1c2c(nc3cc(Cl)ccc13)CCCC2
Data returned: 4.39

Data request: Input C1=Cc2c(nc3ccccc3c2NCCCCCCCNc2c3c(nc4ccccc24)CCC=C3)CC1
Data returned: 5.82

Data request: Input CCC1CCc2nc3cc(Cl)ccc3c(N)c2C1 (stereo not given)
Data returned: 4.61

Data request: Input c1ccc2c(NCCCCCCNc3c4c(nc5ccccc35)CCCC4)c3c(nc2c1)CCCC3
Data returned: 5.52

====

System: J774.1
assay: Cytotoxicity against mouse J774.1 cells after 24 hrs by alamar blue assay
Assay type: cell-based
run.conditions: J774.1, 24 h
pIC50: −log10 of the molar value.
Everything with pIC50 lower than 5 is f; everything else, including exactly 5, is t.

Data request: Threshold query (pIC50 >= 5) on CCOC1CCc2nc3cc(Cl)ccc3c(NCCCCCCCCCNc3c4c(nc5cc(Cl)ccc35)CCC(OCC)C4)c2C1 (centres undefined)
Data returned: t

Data request: Input CC1CCc2nc3ccccc3c(NCCCCCCCCCNc3c4c(nc5ccccc35)CCC(C)C4)c2C1 (centres undefined)
Data returned: t

Data request: Input CCC1CCc2nc3ccccc3c(N)c2C1 (centres undefined)
Data returned: f

Data request: Input Clc1ccc2c(NCCCCCCNc3c4c(nc5cc(Cl)ccc35)CCCC4)c3c(nc2c1)CCCC3
Data returned: t

Data request: Input N=C(N)c1ccc(OCCCCCOc2ccc(C(=N)N)cc2)cc1
Data returned: f

Data request: Input CC1CCc2c(nc3ccc([N+](=O)[O-])cc3c2N)C1 (centres undefined)
Data returned: f

Data request: Input C1=Cc2c(nc3ccccc3c2NCCCCCCNc2c3c(nc4ccccc24)CCC=C3)CC1
Data returned: t

Data request: Input C1=Cc2c(nc3ccccc3c2NCCCCCCCCCNc2c3c(nc4ccccc24)CCC=C3)CC1
Data returned: t

Data request: Input CC1CCc2nc3ccc(Cl)cc3c(N)c2C1 (centres undefined)
Data returned: f

Data request: Input CC1CCc2nc3cc(Cl)ccc3c(N)c2C1 (centres undefined)
Data returned: f

Data request: Input C1=Cc2c(nc3ccccc3c2NCCCCCCCCNc2c3c(nc4ccccc24)CCC=C3)CC1
Data returned: t

Data request: Input CC1CCc2nc3ccccc3c(N)c2C1 (centres undefined)
Data returned: f

Data request: Input CC1CCc2c(nc3ccccc3c2N)C1 (centres undefined)
Data returned: f

Data request: Input Nc1c2c(nc3ccccc13)CCCC2=O
Data returned: f

Data request: Input CC1CCc2nc3ccc([N+](=O)[O-])cc3c(N)c2C1 (centres undefined)
Data returned: f

====

measurement.target: Rhodesain (Trypanosoma brucei rhodesiense) (UniProt Q95PM0)
Sequence (Q95PM0 1-450): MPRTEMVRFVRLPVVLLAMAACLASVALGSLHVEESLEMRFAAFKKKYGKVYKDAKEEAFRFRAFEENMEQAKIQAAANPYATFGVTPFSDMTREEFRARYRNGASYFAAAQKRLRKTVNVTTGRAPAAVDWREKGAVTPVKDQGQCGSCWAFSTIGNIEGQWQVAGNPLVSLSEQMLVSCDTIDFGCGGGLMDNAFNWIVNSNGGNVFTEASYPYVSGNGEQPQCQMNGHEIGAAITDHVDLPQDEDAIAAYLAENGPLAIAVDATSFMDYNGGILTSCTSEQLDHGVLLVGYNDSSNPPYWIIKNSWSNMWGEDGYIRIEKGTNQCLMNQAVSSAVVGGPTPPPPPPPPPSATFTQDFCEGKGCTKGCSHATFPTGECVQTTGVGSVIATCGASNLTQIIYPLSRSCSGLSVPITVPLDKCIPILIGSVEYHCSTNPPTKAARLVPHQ
assay: Inhibition of Trypanosoma brucei rhodesiense rhodesain at 20 uM using Cbz-Phe-Arg-AMC as substrate measured for 5 mins by spectrofluorometric analysis relative to control
For each of the compounds below, state its inhibition.
Answer with the figure and its unit, nothing else.

Data request: For CC1CCc2nc3ccccc3c(NCCCCCCCCCNc3c4c(nc5ccccc35)CCC(C)C4)c2C1 (stereo not drawn) , what is its reported inhibition?
Data returned: 68%

Data request: Input CCCCOC1CCc2nc3cc(Cl)ccc3c(NCCCCCCCCCNc3c4c(nc5cc(Cl)ccc35)CCC(OCCCC)C4)c2C1 (stereo not drawn)
Data returned: 26%

Data request: Input c1ccc2c(NCCCCCNc3c4c(nc5ccccc35)CCCC4)c3c(nc2c1)CCCC3
Data returned: 9%

Data request: Input Clc1ccc2c(NCCCCCCNc3c4c(nc5cc(Cl)ccc35)CCCC4)c3c(nc2c1)CCCC3
Data returned: 61%

Data request: Input CC1CCc2c(nc3ccc([N+](=O)[O-])cc3c2NCCCCCCNc2c3c(nc4ccc([N+](=O)[O-])cc24)CC(C)CC3)C1 (stereo not drawn)
Data returned: 82%

Data request: Input c1ccc2c(NCCCCCCCCNc3c4c(nc5ccccc35)CCCC4)c3c(nc2c1)CCCC3
Data returned: 87%

Data request: Input c1ccc2c(NCCCCCCCNc3c4c(nc5ccccc35)CCCC4)c3c(nc2c1)CCCC3
Data returned: 44%

Data request: Input CCOC1CCc2nc3cc(Cl)ccc3c(NCCCCCCCCCNc3c4c(nc5cc(Cl)ccc35)CCC(OCC)C4)c2C1 (stereo not drawn)
Data returned: 89%

====

For each of the compounds below, state its selectivity ratio at 48 h.
assay: Selectivity index, ratio of IC50 for mouse J774.1 cells to IC50 for Trypanosoma brucei brucei TC221 measured after 48 hrs
Format: toxicity
run.conditions: J774.1 cells (versus Trypanosoma brucei brucei TC221), read-out: Ratio IC50
Reply: number alone, nothing else.

Data request: For C1=Cc2c(nc3ccccc3c2NCCCCCCCCCCNc2c3c(nc4ccccc24)CCC=C3)CC1 , what is its reported selectivity ratio at 48 h?
Data returned: 33.4

Data request: Input CC1CCc2nc3ccc([N+](=O)[O-])cc3c(N)c2C1 (stereo unspecified)
Data returned: 14.5

Data request: Input CC1CCc2nc3cc(Cl)ccc3c(N)c2C1 (stereo unspecified)
Data returned: 6.9

Data request: Input c1ccc2c(NCCCCCCCCCCNc3c4c(nc5ccccc35)CCCC4)c3c(nc2c1)CCCC3
Data returned: 15

Data request: Input CCOC1CCc2nc3cc(Cl)ccc3c(NCCCCCCCCCNc3c4c(nc5cc(Cl)ccc35)CCC(OCC)C4)c2C1 (stereo unspecified)
Data returned: 2.8

Data request: Input COc1ccc2nc3c(c(NCCCCCCCCCNc4c5c(nc6ccc(OC)cc46)CCCC5)c2c1)CCCC3
Data returned: 10.6

Data request: Input C1=Cc2c(nc3ccccc3c2NCCCCCCCNc2c3c(nc4ccccc24)CCC=C3)CC1
Data returned: 152

Data request: Input C1=Cc2c(nc3ccccc3c2NCCCCCCCCCNc2c3c(nc4ccccc24)CCC=C3)CC1
Data returned: 16.7

Data request: Input CC1CCc2c(nc3ccc([N+](=O)[O-])cc3c2NCCCCCCNc2c3c(nc4ccc([N+](=O)[O-])cc24)CC(C)CC3)C1 (stereo unspecified)
Data returned: 38.5

Data request: Input Nc1c2c(nc3cc(Cl)ccc13)CCCC2
Data returned: 3.3

Data request: Input Nc1c2c(nc3ccc([N+](=O)[O-])cc13)CCCC2
Data returned: 5.2

Data request: Input CC1CCc2nc3ccccc3c(NCCCCCCCCCNc3c4c(nc5ccccc35)CCC(C)C4)c2C1 (stereo unspecified)
Data returned: 11.3

Data request: Input CC1CCc2c(nc3ccc([N+](=O)[O-])cc3c2N)C1 (stereo unspecified)
Data returned: 7.1

Data request: Input CC1CCc2nc3ccccc3c(N)c2C1 (stereo unspecified)
Data returned: 2.8

Data request: Input Clc1ccc2c(NCCCCCCNc3c4c(nc5cc(Cl)ccc35)CCCC4)c3c(nc2c1)CCCC3
Data returned: 4.4

Data request: Input C1=Cc2c(nc3ccccc3c2NCCCCCCNc2c3c(nc4ccccc24)CCC=C3)CC1
Data returned: 3.5

Data request: Input N=C(N)c1ccc(OCCCCCOc2ccc(C(=N)N)cc2)cc1
Data returned: 7280

Data request: Input CCCC1CCc2nc3ccccc3c(N)c2C1 (stereo unspecified)
Data returned: 16.5

Data request: Input CC1CCc2c(nc3ccccc3c2N)C1 (stereo unspecified)
Data returned: 3.1

Data request: Input Nc1c2c(nc3ccc(Cl)cc13)CCCC2
Data returned: 3.6

Data request: Input CC1CCc2nc3ccc(Cl)cc3c(N)c2C1 (stereo unspecified)
Data returned: 11.2

Data request: Input CC1(C)CCc2c(nc3cc(Cl)ccc3c2NCCCCCCNc2c3c(nc4cc(Cl)ccc24)CC(C)(C)CC3)C1
Data returned: 2.7

Data request: Input CCCC1CCc2nc3ccc(Cl)cc3c(N)c2C1 (stereo unspecified)
Data returned: 3.1

Data request: Input CCCC1CCc2nc3cc(Cl)ccc3c(N)c2C1 (stereo unspecified)
Data returned: 3.2

Data request: Input CCC1CCc2nc3cc(Cl)ccc3c(N)c2C1 (stereo unspecified)
Data returned: 8.7

Data request: Input CCC1CCc2nc3ccccc3c(N)c2C1 (stereo unspecified)
Data returned: 3.5

Data request: Input CCC1CCc2nc3ccc(Cl)cc3c(N)c2C1 (stereo unspecified)
Data returned: 3.1

Data request: Input C1=Cc2c(nc3ccccc3c2NCCCCCCCCNc2c3c(nc4ccccc24)CCC=C3)CC1
Data returned: 21.3

Data request: Input CCCCOC1CCc2nc3cc(Cl)ccc3c(NCCCCCCCCCNc3c4c(nc5cc(Cl)ccc35)CCC(OCCCC)C4)c2C1 (stereo unspecified)
Data returned: 20
